biological target: PI3K (Homo sapiens, UniProt P42336); construct: PI3 Kinase α IC50; other: PI3 Kinase α; other: PI3 Kinase α isoform, fluorescence polarization; test: Fluorescence polarization assay for PI3K; format: biochemical; conditions: PI3 Kinase α; read-out: PI3 Kinase α IC50
Sequence (P42336 whole entry, canonical isoform): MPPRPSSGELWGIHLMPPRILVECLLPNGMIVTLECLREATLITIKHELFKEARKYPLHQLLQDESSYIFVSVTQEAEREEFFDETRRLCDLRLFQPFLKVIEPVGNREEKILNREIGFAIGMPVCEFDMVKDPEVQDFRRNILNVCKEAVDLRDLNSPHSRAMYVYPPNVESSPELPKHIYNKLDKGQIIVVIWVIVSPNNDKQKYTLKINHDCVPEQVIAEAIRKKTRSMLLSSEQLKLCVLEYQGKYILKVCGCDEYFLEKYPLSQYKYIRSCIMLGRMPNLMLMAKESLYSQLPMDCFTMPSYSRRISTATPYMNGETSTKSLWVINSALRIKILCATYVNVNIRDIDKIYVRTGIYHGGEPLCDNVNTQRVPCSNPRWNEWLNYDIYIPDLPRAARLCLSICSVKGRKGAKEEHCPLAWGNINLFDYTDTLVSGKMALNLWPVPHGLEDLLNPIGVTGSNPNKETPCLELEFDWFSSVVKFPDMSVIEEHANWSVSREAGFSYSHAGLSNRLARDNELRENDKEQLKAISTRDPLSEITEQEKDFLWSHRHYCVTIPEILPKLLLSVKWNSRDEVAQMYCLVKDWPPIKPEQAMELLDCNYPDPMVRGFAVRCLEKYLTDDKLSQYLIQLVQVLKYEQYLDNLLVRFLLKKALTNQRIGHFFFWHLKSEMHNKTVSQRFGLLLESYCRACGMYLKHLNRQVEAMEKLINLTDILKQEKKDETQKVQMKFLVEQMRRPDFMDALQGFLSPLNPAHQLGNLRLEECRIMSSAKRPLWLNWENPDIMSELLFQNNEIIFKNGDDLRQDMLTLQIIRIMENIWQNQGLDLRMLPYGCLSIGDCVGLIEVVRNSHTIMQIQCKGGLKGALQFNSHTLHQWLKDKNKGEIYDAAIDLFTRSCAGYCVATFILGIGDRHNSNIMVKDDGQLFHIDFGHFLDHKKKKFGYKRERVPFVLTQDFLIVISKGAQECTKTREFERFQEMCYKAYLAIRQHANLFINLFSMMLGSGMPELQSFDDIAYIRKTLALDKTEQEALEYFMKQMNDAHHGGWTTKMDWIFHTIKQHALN
reportedProperty: IC50 (nM)

{"columns": ["compound", "assayTarget", "unitLabel", "IC50"],
 "data": [
  ["Cn1ncc2c(N3CC4CCC(C3)O4)nc(-c3ccc(NC(=O)Nc4ccc(N5CCOCC5)nc4)cc3)nc21 [Example 237]", "PI3K (Homo sapiens, UniProt P42336)", "nM", 1350],
  ["O=C(Nc1ccc(CO)cc1)Nc1ccc(-c2nc(N3CC4CCC(C3)O4)c3cnn(CCO)c3n2)cc1 [Example 201]", "PI3K (Homo sapiens, UniProt P42336)", "nM", 50],
  ["CC(C)OC(=O)N1CCC(n2ncc3c(N4CC5CCC(C4)O5)nc(-c4ccc(NC(=O)Nc5cccnc5)cc4)nc32)CC1 [Example 72]", "PI3K (Homo sapiens, UniProt P42336)", "nM", 324]
]}

I: CCNC(=O)Nc1ccc(-c2nc(N3CC4CCC(C3)O4)c3cnn(CCN(C)C)c3n2)cc1 [Example 160]
II: N#CCCn1ncc2c(N3CC4CCC(C3)O4)nc(-c3ccc(NC(=O)Nc4cccnc4)cc3)nc21 [Example 216]
Could you tell me which of I and II has the lower IC50 reading? Indicate which entry you chose by stating its label.
II

I: CC(C)C(=O)N1CCC(n2ncc3c(N4CC5CCC(C4)O5)nc(-c4ccc(NC(=O)NCCF)cc4)nc32)CC1 [Example 85]
II: CCn1ncc2c(N3CC4CCC(C3)O4)nc(-c3ccc(NC(=O)Nc4ccc(OCCO)cc4)cc3)nc21 [Example 281]
Could you tell me which of I and II has the lower IC50 reading? Indicate which entry you chose by stating its label.
II

1: CCOC(=O)N1CCC(n2ncc3c(N4CC5CCC(C4)O5)nc(-c4ccc(NC(=O)Nc5ccn[nH]5)cc4)nc32)CC1 [Example 39]
2: CCNC(=O)Nc1ccc(-c2nc(N3CC4CCC(C3)O4)c3cnn(C(C)C)c3n2)cc1 [Example 140]
Would you let me know which has the greater IC50 value, 1 or 2 ? Indicate which entry you chose by stating its label.
1

I: N#CCCn1ncc2c(N3CC4CCC(C3)O4)nc(-c3ccc(NC(=O)Nc4ccc(CO)cc4)cc3)nc21 [Example 218]
II: O=C(Nc1ccc(-c2nc(N3CC4CCC(C3)O4)c3cnn(C4CCC5(CC4)OCCO5)c3n2)cc1)OCCO [Example 121]
III: COC(=O)N1CCC(n2ncc3c(N4CC5CCC(C4)O5)nc(-c4ccc(NC(=O)Nc5ccccc5)cc4)nc32)CC1 [Example 11]
IV: CNC(=O)Nc1ccc(-c2nc(N3CC4CCC(C3)O4)c3cnn(C4CCN(C(=O)C(C)C)CC4)c3n2)cc1 [Example 82]
# ascending order, key=IC50 Dear reader, please state the labels in the requested order.
I, III, IV, II

----------
molecular target: Human mTOR (FLAG-TOR) (Homo sapiens); construct: FLAG; test: Human mTOR kinase assay with purified enzyme, DELFIA format; assay type: biochemical
pIC50: −log10 of the molar value.
reportedProperty: pIC50

Solved cases below.
{"columns": ["compound", "pIC50"],
 "data": [
  ["CCn1ncc2c(N3CC4CCC(C3)O4)nc(-c3ccc(NC(=O)NCCN4CCN(C)CC4)cc3)nc21", 7.06],
  ["CN1CCN(c2ccc(NC(=O)Nc3ccc(-c4nc(N5CC6CCC(C5)O6)c5cnn(CCC#N)c5n4)cc3)cn2)CC1", 9.39],
  ["CC(C)(C)n1ncc2c(N3CC4CCC(C3)O4)nc(-c3ccc(NC(=O)NCCF)cc3)nc21", 9.21]
]}

P: CC(C)(C)OC(=O)N1CCC(n2ncc3c(N4CC5CCC(C4)O5)nc(-c4ccc(NC(=O)NCCF)cc4)nc32)CC1
Q: CNC(=O)Nc1ccc(-c2nc(N3CC4CCC(C3)O4)c3cnn(CCO)c3n2)cc1
R: O=C(Nc1ccc(-c2nc(N3CC4CCC(C3)O4)c3cn[nH]c3n2)cc1)Nc1cccnc1
S: COC(=O)N1CCC(n2ncc3c(N4CC5CCC(C4)O5)nc(-c4ccc(NC(=O)NCCN5CCN(C)CC5)cc4)nc32)CC1
T: CCn1ncc2c(N3CC4CCC(C3)O4)nc(-c3ccc(NC(=O)Nc4ccc(C(N)=O)cc4)cc3)nc21
Arrange the 5 compounds from largest to smallest pIC50. Dear reader, please state the labels in the requested order.
T, P, R, Q, S
(T: 9.98, P: 9.62, R: 9.31, Q: 8.55, S: 7.29)
